molecular target: recombinant hMAO-A (Homo sapiens (Human)); test: MAO-A activity assay (MAO-Glo assay kit); conditions: 40 μM substrate, 30 mins pre-incubation
Sequence (P21397 whole entry): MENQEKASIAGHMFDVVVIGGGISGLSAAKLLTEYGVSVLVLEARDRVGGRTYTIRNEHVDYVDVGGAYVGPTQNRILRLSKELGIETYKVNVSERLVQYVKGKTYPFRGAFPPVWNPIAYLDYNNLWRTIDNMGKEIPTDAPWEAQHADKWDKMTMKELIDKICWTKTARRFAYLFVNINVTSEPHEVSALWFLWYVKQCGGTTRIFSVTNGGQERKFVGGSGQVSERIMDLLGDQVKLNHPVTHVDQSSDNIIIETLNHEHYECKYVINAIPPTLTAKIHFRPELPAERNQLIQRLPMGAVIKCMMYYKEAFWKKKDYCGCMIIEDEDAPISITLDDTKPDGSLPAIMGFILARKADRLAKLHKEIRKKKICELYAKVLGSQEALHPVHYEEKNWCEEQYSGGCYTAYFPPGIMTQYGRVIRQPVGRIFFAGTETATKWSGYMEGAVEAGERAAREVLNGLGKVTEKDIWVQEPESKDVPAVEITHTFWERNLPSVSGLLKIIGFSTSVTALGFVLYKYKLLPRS
reported_property: IC50

Examples from the recorded data:
{"structure_as_smiles": "NC/C(=C\\F)COc1ccc(S(=O)(=O)CC23CCC(C(=O)N4CCC4)(CC2)CC3)cc1", "reported_property": "IC50", "result": "> 30 µM"}
{"structure_as_smiles": "CC(C)C(=O)N(C)CS(=O)(=O)c1ccc(OC/C(=C/F)CN)cc1", "reported_property": "IC50", "result": "> 30 µM"}
{"structure_as_smiles": "CC1(C)CCC(=O)N1CS(=O)(=O)c1ccc(OC/C(=C/F)CN)cc1Cl", "reported_property": "IC50", "result": "> 30 µM"}
{"structure_as_smiles": "NC/C(=C\\F)COc1ccc(S(=O)(=O)CC23CCC(C(=O)NCC(F)(F)F)(CC2)CC3)cc1", "reported_property": "IC50", "result": "> 30 µM"}
{"structure_as_smiles": "NC/C(=C\\F)COc1ccc(S(=O)(=O)CN2C(=O)CCc3ccccc32)cc1", "reported_property": "IC50", "result": "10 to 30 µM"}
{"structure_as_smiles": "N#CC1(CS(=O)(=O)c2ccc(OC/C(=C/F)CN)cc2F)CCOCC1", "reported_property": "IC50", "result": "10 to 30 µM"}
{"structure_as_smiles": "NC/C(=C\\F)COc1ccc(S(=O)(=O)Cc2cccc(C(=O)N3CCCC3)c2)cc1", "reported_property": "IC50", "result": "> 30 µM"}

We now examine a further compound.
Prompt line: Reported IC50 for CC(C)OCCNC(=O)C12CCC(CS(=O)(=O)c3ccc(OC/C(=C/F)CN)cc3)(CC1)CC2 : what is it?
Response line: > 30 µM

---

molecular target: recombinant hSSAO (Homo sapiens (Human), UniProt Q16853); assay: SSAO Activity Assay (MAO-Glo assay kit); settings: 40 μM substrate, 30 mins pre-incubation
Sequence (Q16853 whole entry): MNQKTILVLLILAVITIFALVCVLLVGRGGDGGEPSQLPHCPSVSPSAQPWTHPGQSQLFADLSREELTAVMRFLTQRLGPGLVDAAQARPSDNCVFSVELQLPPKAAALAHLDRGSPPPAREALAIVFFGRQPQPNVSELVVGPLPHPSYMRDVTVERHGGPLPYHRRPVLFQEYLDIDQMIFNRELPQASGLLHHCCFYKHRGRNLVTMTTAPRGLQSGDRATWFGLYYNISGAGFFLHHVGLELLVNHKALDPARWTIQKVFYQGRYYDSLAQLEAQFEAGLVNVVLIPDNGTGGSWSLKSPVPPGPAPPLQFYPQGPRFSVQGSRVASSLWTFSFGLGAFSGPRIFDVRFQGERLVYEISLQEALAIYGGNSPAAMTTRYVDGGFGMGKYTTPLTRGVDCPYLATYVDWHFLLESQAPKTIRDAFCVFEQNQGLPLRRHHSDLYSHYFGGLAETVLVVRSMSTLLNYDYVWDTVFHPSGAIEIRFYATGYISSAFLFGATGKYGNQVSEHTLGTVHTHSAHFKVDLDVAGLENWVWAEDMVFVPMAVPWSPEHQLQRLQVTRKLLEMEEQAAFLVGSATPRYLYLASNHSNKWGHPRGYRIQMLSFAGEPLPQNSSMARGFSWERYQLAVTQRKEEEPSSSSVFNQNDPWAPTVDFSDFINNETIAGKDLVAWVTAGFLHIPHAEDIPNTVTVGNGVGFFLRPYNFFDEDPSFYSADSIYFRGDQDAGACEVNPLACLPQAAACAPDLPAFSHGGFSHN
pIC50: −log10 of the molar value.
reported_property: pIC50

Examples from the recorded data:
{"molecule": "CC(C)(C)NC(=O)C12CCC(CS(=O)(=O)c3ccc(OC/C(=C\\F)CN)cc3)(CC1)CC2", "pIC50": "7.00 to 7.70"}
{"molecule": "NC/C(=C\\F)COc1ccc(S(=O)(=O)CC23CCC(C(=O)NCC4CC4)(CC2)CC3)cc1", "pIC50": "> 7.70"}
{"molecule": "NC/C(=C\\F)COc1ccc(S(=O)(=O)CC2CCN(C(=O)C34CC(F)(C3)C4)CC2)cc1", "pIC50": "7.00 to 7.70"}
{"molecule": "NC/C(=C\\F)COc1ccc(S(=O)(=O)CC23CCC(C4(NC(=O)C5CC5)CC4)(CC2)CC3)cc1", "pIC50": "7.00 to 7.70"}
{"molecule": "NC/C(=C\\F)COc1ccc(S(=O)(=O)CC2CCOCC2)c(F)c1", "pIC50": "7.00 to 7.70"}

Prompt line: Form field - read-out: pIC50; system: recombinant hSSAO (Homo sapiens (Human), UniProt Q16853); submitted item: CC1(CS(=O)(=O)c2ccc(OC/C(=C/F)CN)cc2)CCN(C(=O)C2(C)CC2)CC1
Response line: 7.00 to 7.70

Prompt line: Form field - read-out: pIC50; system: recombinant hSSAO (Homo sapiens (Human), UniProt Q16853); submitted item: CC1(C(=O)NC23CCC(CS(=O)(=O)c4ccc(OC/C(=C/F)CN)cc4)(CC2)CC3)CC1
Response line: > 7.70

Prompt line: Form field - read-out: pIC50; system: recombinant hSSAO (Homo sapiens (Human), UniProt Q16853); submitted item: CCN(CC)C(=O)C12CCC(CS(=O)(=O)c3ccc(OC/C(=C/F)CN)cc3)(CC1)CC2
Response line: 7.00 to 7.70

Prompt line: Form field - read-out: pIC50; system: recombinant hSSAO (Homo sapiens (Human), UniProt Q16853); submitted item: CN(C(=O)C1CC1)C12CCC(CS(=O)(=O)c3ccc(OC/C(=C/F)CN)cc3)(CC1)CC2
Response line: 7.00 to 7.70
